test system: SW-620 colon; test: NCI-60 one-dose screen, 48 h; conditions: 10 µM unless noted
Compounds without any hit were thinned out: in the full panel of roughly 83,000, 20% have a hit. Calls of active or inactive are those of the source. Rule for the calls: active = growth percent below 10; inactive = the rest.
Log the outcome using a class from class 1 for active, class 0 for inactive

Field: example entries. Status: answers known.
| molecule | system_under_test | label_value |
| --- | --- | --- |
| FCc1nc2nc(Cl)c(Cl)nc2[nH]1 | SW-620 colon | class 0 |
| Cc1[nH]c(C(=O)Nc2ccccc2OCc2cccc(C(=O)NCCN)c2)c(Cl)c1Cl | SW-620 colon | class 1 |
| O=C(Nc1nc2ccc(C(=O)N3CCN(c4ccc(Cl)c(Cl)c4)CC3)cc2s1)c1ccc(NCCc2ccccc2)c([N+](=O)[O-])c1 | SW-620 colon | class 0 |
| CCn1cc(C2NC(=O)c3ccccc3N2)c2cccc(C)c21 (configuration not stated) | SW-620 colon | class 0 |
| COc1cccc(CCC(=O)c2cc3c(N)c(C(=O)Nc4cccc(Cl)c4C)sc3nc2C)c1 | SW-620 colon | class 0 |

input: Called result for `COc1cc(NCCCN(CC(C)C)C2CCCC2)c2ncccc2c1`
output: class 0

input: Entry to check: `CC(=O)c1cccc(NS(=O)(=O)c2cccc(C(=O)Nc3ccc(Br)cc3)c2)c1`
output: class 0

input: Entry to check: `CCCCCCCCCCCCCCCC(=O)OC[C@@]1(O)C[C@@]23CC[C@@H]4C(C)(C)CCC[C@@]4(C)[C@@H]2CC[C@H]1C3`
output: class 0

----------
Test system: NCI-H322M lung
Assay: NCI-60 one-dose screen, 48 h (100 = growth as untreated, 0 = no growth, -100 = all killed)
Settings: 10 µM unless noted
Method: Growth inhibition of the NCI-H322M human Non-Small Cell Lung tumor cell line is measured as a screen for anti-cancer activity. Cells are grown in 96 well plates and exposed to the test compound for 48 hours. Compounds are tested at a single concentration, which is 10^-5 M for most compounds. The reported endpoint is percent growth (GI% or GIPRCNT), where numbers from 0 - 100% represent growth inhibition, and numbers from -100% - 0 represent cell death. […]
This is part of a sample that, as a whole, favours compounds with a hit. Of some 83,000 tested, about 20% had one in any assay.
measurement_label: growth (%)
Answers are plain numbers, in %.

| molecule | measure_unit | growth |
| --- | --- | --- |
| COc1ccc(-c2cnnc3c(-c4cccc(C(F)(F)F)c4)cnn23)cc1 | % | 45.7 |
| C=C(C)[C@@H]1CC[C@]2(C(=O)N3CCN(C)CC3)CC[C@]3(C)[C@H](CC[C@@H]4[C@@]5(C)CCC(=O)C(C)(C)[C@@H]5CC[C@]43C)[C@@H]12 | % | 91.5 |
| COc1cc(NCC(O)CN(CC(C)C)C2CCCC2)c2ncccc2c1 (stereo not given) | % | 110 |

// each molecule listed below needs its growth
1. BrC(Br)(Br)c1cnc2ccccc2n1
2. O=C(CN1CCOCC1)Nc1ccc2ncnc(Nc3ccc(OCc4cccc(F)c4)c(Cl)c3)c2c1
3. CC(=O)c1c(-c2ccc(OC(F)(F)F)cc2)nc2ccccn12
4. COc1ccc(/C=C/c2n[nH]c3ccc(N4CCOC4=O)cc23)cc1
5. CC(=O)Nc1ccc(S(=O)(=O)NC2CCCCC2)cc1

output:
74.9
20.9
90.4
8.47
96.5

// each molecule listed below needs its growth
1. Cc1ccc2[nH]c(=O)cc(-n3nncc3COc3ccc(C=O)cc3)c2c1
2. O=C(Nc1ccc2ncnc(Nc3ccc(Oc4cccc(F)c4)c(Cl)c3)c2c1)c1ccc(CNCCO)cc1

output:
103
39.9
